# System: serum-borne HCV (genotype 1b)
# assay_info: Replication of serum-borne HCV in hADSC (qRT-PCR of 5′-UTR)
# Assay type: cell-based
# stated_conditions: p5 hADSC, peptide 1, 10 and 100 μg/ml (control peptide 100 μg/ml) added 1 h before HCV(+) serum genotype 1b; day 21 post-infection; FIG. 1A
Ends that are not written are not given here.
quantity_name: viral (5′-UTR) copy numbers in the supernatant

| substance | measurement_target | result |
| --- | --- | --- |
| DEAQETAVSSHEQ-OH [DEA-Q, DEAQETAVSSHEQ] | serum-borne HCV (genotype 1b) | significantly reduced |
| DEAQETAVSSHEQD-OH [DEA, DEAQETAVSSHEQD] | serum-borne HCV (genotype 1b) | significantly reduced |
| QETAVSSHEQD-OH [QET, QETAVSSHEQD] | serum-borne HCV (genotype 1b) | significantly reduced |
